Δ OD 450 nm = OD450 (time = 16 hours) − OD450 (time zero), Mean listing for selected molecules.
test system: Escherichia coli (E. coli—ATCC #10536); assay: Automated assessment of efficacy in model surfactant medium (2.85% sodium cocoyl glycinate and 1.85% sodium lauroamphoacetate), 15 seconds exposure, delta OD450/OD590; format: cell-based; settings: single active alone at 0.1% w/v; model surfactant solution; 15 s exposure
observed.property: Δ OD 450 nm = OD450 (time = 16 hours) − OD450 (time zero), Mean

molecule	numeric.readout
CCCCc1ccc(O)cc1	−0.61
CCCc1ccccc1O	−1.42
CCCc1ccc(O)cc1	−1.59
CCC(C)c1ccccc1O (stereo not drawn)	−1.44
C/C=C/c1ccccc1O [(E)-2-(prop-1-enyl)phenol]	−0.60
Cc1ccc(C(C)C)cc1O	−0.52

###

Tested on: Escherichia coli (E. coli—ATCC #10536)
Assay: Automated assessment of efficacy in model surfactant medium (2.85% sodium cocoyl glycinate and 1.85% sodium lauroamphoacetate), 15 seconds exposure, delta OD450/OD590
Type: cell-based
Settings: single active alone at 0.2% w/v; model surfactant solution; 15 s exposure
Procedure: Micobiocidal Activity of Actives as Per the Invention in a Model Surfactant Medium Test Methodology for Automated Assessment of Efficacy in Surfactant Base […] Tests were conducted using standard microtiter plate assays using an automated liquid handling system, 270 μl of the surfactant test solution was pipetted into each well of the microtitre plate and 30 μl of the bacterial suspension was then added. […] OD450 increases by less than 0.2 absorbance unit on incubation and (2). […]
observed.property: Δ OD 450 nm = OD450 (time = 16 hours) − OD450 (time zero), Mean

compound	numeric.readout
C=C(C)[C@@H]1CC=C(CO)CC1 [(S)-(−) perillyl alcohol]	−1.44
CC1=CC[C@@H](CO)[C@H](C)C1 (relative stereo)	−1.43
C/C=C/c1ccccc1O [(E)-2-(prop-1-enyl)phenol]	−0.53
CCCCc1ccc(O)cc1	−0.54
Cc1ccc(C(C)C)cc1O	−0.52
CC1=CC(C)C(CO)C(C)C1 (stereo not shown)	−1.50
CC1CCC(CO)C(C)C1 (stereo not shown) [dihydrofloralol, 2,4-Dimethylcyclohexylmethanol]	−1.39

###

test system: Escherichia coli (E. coli—ATCC #10536); assay: Automated assessment of efficacy in model surfactant medium (2.85% sodium cocoyl glycinate and 1.85% sodium lauroamphoacetate), 15 seconds exposure, delta OD450/OD590; format: cell-based; details: single active alone at 0.2% w/v; model surfactant solution; 15 s exposure
observed.property: Δ OD 590 nm OD590 (time = 16 hours) − OD590 (time zero), Mean

compound	numeric.readout
CC1=CC(C)C(CO)C(C)C1 (stereo not shown) [2,4,6-trimethyl-3-cyclohexene-1-methanol]	0.29
C=C(C)[C@@H]1CC=C(CO)CC1 [(S)-(−) perillyl alcohol]	0.36
CC1CCC(CO)C(C)C1 (stereo not shown) [dihydrofloralol, 2,4-Dimethylcyclohexylmethanol]	0.41
Cc1ccc(C(C)C)cc1O [5-isopropyl-2-methylphenol]	0.62
C/C=C/c1ccccc1O [(E)-2-(prop-1-enyl)phenol]	0.63
CC1=CC[C@@H](CO)[C@H](C)C1 (relative stereo) [Floralol]	0.35
CCCCc1ccc(O)cc1 [4-butylphenol]	0.58
